protocol-description: Pharmacokinetics in ICR mice after IV and PO dose
Assay type: in vivo
measurement-parameters: mouse, plasma, IV 5 mg/kg
recorded-metric: Vd

- O=C(O)c1ccc2c(c1)nc(Nc1cccc(Cl)c1)c1ccncc12: 9.4 L/kg

====

Tested on: Jurkat
protocol-description: Cell proliferation assay, Alamar Blue, Jurkat;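 note: cells exposed to compound for about 4 days at 37 °C, then Alamar Blue added and fluorescence read after about 4 h, controls given medium without drug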
Format: cell-based
measurement-parameters: Homo sapiens, Table 18
pIC50: −log10 of the molar value.
recorded-metric: pIC50

- O=C(O)c1ccc2c(c1)nc(NC1CC1)c1nc(NCc3ccccc3)ncc12 [drawing 1075]: 5.05
- CCCNc1ncc2c(n1)c(NC1CC1)nc1cc(C(=O)O)ccc12 [drawing 1103]: 5.13
- Cc1cccc(Nc2nc3cc(C(=O)O)ccc3c3cncnc23)c1: 5.46
- C#Cc1cccc(Nc2nc3cc(C(=O)O)ccc3c3cnc(NCC4CC4)nc23)c1 [drawing 1064]: 6.38
- O=C(O)c1ccc2c(c1)nc(NC1CC1)c1nc(NC3CC3)ncc12 [drawing 1074]: 5.46
